Recorded values, source patent USRE47150.

List of variant/HC_K99L values.
- TEST TARGET: T1, mouse tissue factor pathway inhibitor (TFPI) (mouse, UniProt O54819 29-289, limits assumed)
- T1 construct: bought; also called mTFPI; murine TFPI
- T1 sequence (looked up): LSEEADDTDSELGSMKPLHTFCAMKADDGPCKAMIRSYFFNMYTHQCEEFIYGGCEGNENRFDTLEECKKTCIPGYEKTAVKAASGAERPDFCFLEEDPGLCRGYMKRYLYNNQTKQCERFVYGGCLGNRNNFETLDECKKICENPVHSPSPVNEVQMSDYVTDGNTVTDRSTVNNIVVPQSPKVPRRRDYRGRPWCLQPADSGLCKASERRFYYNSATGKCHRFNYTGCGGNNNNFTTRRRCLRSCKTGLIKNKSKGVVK
- ASSAY SUMMARY: competitive ELISA
QUANTITY MEASURED: variant/HC_K99L (ratio)

| BINDER | EXPERIMENTAL VALUE |
| --- | --- |
| 2A8 HC S35D+I51D+S55R+K99V/LC Y48F+N51V (Fab, V domains shown) VH: QVQLVESGGGLVQPGGSLRLSCAASGFTFRSYGMDWVRQAPGKGLEWVSSDRGSRSSTYYADSVKGRFTISRDNSKNTLYLQMNSLRAEDTAVYYCARVYRYWFDYWGQGTLVTVSS VL: DIELTQPPSVSVAPGQTARISCSGDNLRNYYAHWYQQKPGQAPVVVIFYDVNRPSGIPERFSGSNSGNTATLTISGTQAEDEADYYCQSWDDGVPVFGGGTKLTVLG | 2.7 |
| 2A8 HC Q1E+S31V+S50A+I51D+S55R+S56G+K99V/LC D1S+I2Y+A13S+S21T+R28P+N29K+Y48F+E80M+D91L+D92S+V94T+V96W (Fab, V domains shown) VH: EVQLVESGGGLVQPGGSLRLSCAASGFTFRVYGMSWVRQAPGKGLEWVSADRGSRGSTYYADSVKGRFTISRDNSKNTLYLQMNSLRAEDTAVYYCARVYRYWFDYWGQGTLVTVSS VL: SYELTQPPSVSVSPGQTARITCSGDNLPKYYAHWYQQKPGQAPVVVIFYDNNRPSGIPERFSGSNSGNTATLTISGTQAMDEADYYCQSWLSGTPWFGGGTKLTVLG | 5.9 |
| 2A8 HC S35D+S55R+K99L/LC Y48F+N51V+D91W+V94T (Fab, V domains shown) VH: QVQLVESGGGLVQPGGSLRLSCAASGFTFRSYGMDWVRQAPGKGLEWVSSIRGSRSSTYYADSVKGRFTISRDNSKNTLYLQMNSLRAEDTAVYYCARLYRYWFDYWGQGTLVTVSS VL: DIELTQPPSVSVAPGQTARISCSGDNLRNYYAHWYQQKPGQAPVVVIFYDVNRPSGIPERFSGSNSGNTATLTISGTQAEDEADYYCQSWWDGTPVFGGGTKLTVLG | 19.9 |
| 2A8-200 (HC S35D+S55R+K99L/LC Y48F+N51V+D91W) (Fab, V domains shown) VH: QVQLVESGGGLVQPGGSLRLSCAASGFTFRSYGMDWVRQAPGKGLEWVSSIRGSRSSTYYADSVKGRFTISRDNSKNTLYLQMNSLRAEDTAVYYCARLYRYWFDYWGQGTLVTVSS VL: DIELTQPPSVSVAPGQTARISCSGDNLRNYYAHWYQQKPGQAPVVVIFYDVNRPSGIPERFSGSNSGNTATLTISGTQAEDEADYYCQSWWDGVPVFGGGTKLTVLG | 17.4 |
| 2A8 HC S35D+S55R+K99L/LC I2Y+Y48F+N51V+D91W (Fab, V domains shown) VH: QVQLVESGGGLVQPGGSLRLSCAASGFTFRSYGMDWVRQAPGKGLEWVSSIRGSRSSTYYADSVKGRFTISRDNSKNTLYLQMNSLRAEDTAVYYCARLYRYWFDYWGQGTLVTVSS VL: DYELTQPPSVSVAPGQTARISCSGDNLRNYYAHWYQQKPGQAPVVVIFYDVNRPSGIPERFSGSNSGNTATLTISGTQAEDEADYYCQSWWDGVPVFGGGTKLTVLG | 19 |
